# TARGET UNDER TEST: T1, human CD45 (human, UniProt P08575 26-1306)
# T1 sequence: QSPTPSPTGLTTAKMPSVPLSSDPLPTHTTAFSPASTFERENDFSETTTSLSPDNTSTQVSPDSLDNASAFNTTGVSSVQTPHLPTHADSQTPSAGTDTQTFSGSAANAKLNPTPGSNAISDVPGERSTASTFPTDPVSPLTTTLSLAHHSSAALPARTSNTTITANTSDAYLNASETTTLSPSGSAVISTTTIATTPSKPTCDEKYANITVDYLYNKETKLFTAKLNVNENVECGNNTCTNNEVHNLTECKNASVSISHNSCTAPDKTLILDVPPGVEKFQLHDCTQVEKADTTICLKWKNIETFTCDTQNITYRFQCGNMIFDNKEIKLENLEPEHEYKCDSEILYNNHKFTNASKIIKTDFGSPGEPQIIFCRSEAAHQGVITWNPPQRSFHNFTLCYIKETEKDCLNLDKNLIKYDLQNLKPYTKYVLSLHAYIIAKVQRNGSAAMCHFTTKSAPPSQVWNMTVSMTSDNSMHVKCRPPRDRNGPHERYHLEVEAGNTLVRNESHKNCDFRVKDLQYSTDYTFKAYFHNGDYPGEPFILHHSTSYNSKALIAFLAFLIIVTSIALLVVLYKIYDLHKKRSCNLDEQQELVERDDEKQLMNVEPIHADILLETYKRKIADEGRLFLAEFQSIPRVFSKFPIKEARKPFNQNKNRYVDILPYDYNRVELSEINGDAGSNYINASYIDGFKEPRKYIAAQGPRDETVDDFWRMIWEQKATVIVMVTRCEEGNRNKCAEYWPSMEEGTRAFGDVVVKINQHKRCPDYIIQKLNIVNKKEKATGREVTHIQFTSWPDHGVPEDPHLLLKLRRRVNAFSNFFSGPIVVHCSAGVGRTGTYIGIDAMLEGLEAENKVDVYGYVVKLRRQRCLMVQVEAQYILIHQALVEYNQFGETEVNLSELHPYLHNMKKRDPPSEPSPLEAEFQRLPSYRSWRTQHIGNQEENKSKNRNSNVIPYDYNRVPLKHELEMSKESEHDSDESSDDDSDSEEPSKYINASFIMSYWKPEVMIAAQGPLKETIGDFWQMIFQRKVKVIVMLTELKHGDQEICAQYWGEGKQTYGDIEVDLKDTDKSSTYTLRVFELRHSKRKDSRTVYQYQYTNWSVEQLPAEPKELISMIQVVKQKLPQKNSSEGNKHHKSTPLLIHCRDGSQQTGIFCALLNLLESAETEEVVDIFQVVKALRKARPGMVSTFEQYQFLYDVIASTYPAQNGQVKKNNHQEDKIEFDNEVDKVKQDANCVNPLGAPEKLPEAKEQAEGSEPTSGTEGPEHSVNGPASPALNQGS
# TEST SUMMARY: cell-based or functional assay
MEASUREMENT KIND: EC50, viability assay, Jurkat (CD45+), 72 h (nM)

{"columns": ["BINDER", "DATA VALUE"],
 "data": [
  ["YTH24.5-rat IgG2b-PBD (drug-linker B1) (antibody, V domains shown, PBD dimer drug-linker B1; light chains unconjugated or attached to a single molecule of B1; sites not given; PBD dimer drug-linker B1 conjugated after TCEP reduction; heavy chains attached to up to five molecules of B1; sites not given; DAR 1.94 (preparation) / 2.00) VH: QVNLLQSGAALVKPGASVKLSCKASSYTFTDYYIHWVKQSHGKTLEWIGYINPKSGFTNYNEKFRRKATLTVDKSTNTAYMDISRLTSEDSATYYCTRRTGVIPMDAWGQGASVTVSS VL: DVVMTQTPVSLSVSLGGQVSISCRSSQSFVSSDGNTYLNWYLQKPGQSPQLLIYKVSNRLSGVPDRFSGSGSGTDFTLKISRVEHDDLGVYYCGQASKIPLTFGSGTKLEIKR", 0.00536],
  ["YTH24.5-hIgG1-AAA-PBD (antibody, DAR 2.08, V domains shown) VH: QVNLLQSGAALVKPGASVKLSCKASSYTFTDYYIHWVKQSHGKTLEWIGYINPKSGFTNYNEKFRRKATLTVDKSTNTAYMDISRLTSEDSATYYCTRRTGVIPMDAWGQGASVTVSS VL: DVVMTQTPVSLSVSLGGQVSISCRSSQSFVSSDGNTYLNWYLQKPGQSPQLLIYKVSNRLSGVPDRFSGSGSGTDFTLKISRVEHDDLGVYYCGQASKIPLTFGSGTKLEIK", 0.023],
  ["YTH54.12-rat IgG2b-PBD (drug-linker B1) (antibody, V domains shown, PBD dimer drug-linker B1; light chains unconjugated or attached to a single molecule of B1; sites not given; PBD dimer drug-linker B1 conjugated after TCEP reduction; heavy chains attached to up to five molecules of B1; sites not given; DAR 1.90 (preparation) / 2.00) VH: EVQLVESGGGLVQPGGSMKLSCAASGFTFSDYYMAWVRQAPKKGLEWVASMSFAGSSTYYGDSVKGRFTISRDNAKTTLYLQMNSLRSEDTATYYCARMYTTDYYLYWYFDFWGPGTMVTVSS VL: DVQMTQSPSYLAASPGESVSISCKASKSISNYLAWYQQKPGEANKILIYSGSTLQSGTPSRFSGSGSGTDFSLTIRNLEPEDFAVYYCQQYDEKPLTFGSGTKLEIKR", 0.00444],
  ["YTH54.12-hIgG1-AAA-PBD (antibody, DAR 2.10, V domains shown) VH: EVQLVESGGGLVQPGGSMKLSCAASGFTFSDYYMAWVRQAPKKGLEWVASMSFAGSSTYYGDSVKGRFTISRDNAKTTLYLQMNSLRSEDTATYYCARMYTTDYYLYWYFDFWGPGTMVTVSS VL: DVQMTQSPSYLAASPGESVSISCKASKSISNYLAWYQQKPGEANKILIYSGSTLQSGTPSRFSGSGSGTDFSLTIRNLEPEDFAVYYCQQYDEKPLTFGSGTKLEIK", 0.018]
]}
